experimental-details: Plasma pharmacokinetics (validated HPLC/MS, noncompartmental analysis)
Type: in vivo, human
test-conditions: human, plasma, oral, 160 mg/day, Day 1 of cycle 1, 160 mg/day, mean (SD)
result-type: Cmax (ng/mL)
Write the value in ng/mL as a bare number.

Give me measured Cmax, please, for this compound: CC1(C)CCC2(CC1)N[C@@H](C(=O)N[C@@H]1CC[C@@H](C(N)=O)OC1)[C@H](c1ccnc(Cl)c1F)[C@]21C(=O)Nc2cc(Cl)ccc21
1380

----------
experimental-details: Plasma pharmacokinetics (validated HPLC/MS, noncompartmental analysis)
Type: in vivo, human
test-conditions: human, plasma, oral, 120 mg/day, Day 1 of cycle 1, 120 mg/day, mean (SD); read-out: AUClast
result-type: AUC(0-t)

Give me measured AUC(0-t), please, for this compound: CC1(C)CCC2(CC1)N[C@@H](C(=O)N[C@@H]1CC[C@@H](C(N)=O)OC1)[C@H](c1ccnc(Cl)c1F)[C@]21C(=O)Nc2cc(Cl)ccc21
11300 ng·h/mL

----------
experimental-details: Plasma pharmacokinetics (validated HPLC/MS, noncompartmental analysis)
Format: in vivo, human
test-conditions: human, plasma, oral, 160 mg/day, Day 14 of cycle 1, 160 mg/day, median (minimum, maximum); read-out: Tmax
result-type: Tmax (h)
Write the value in h as a bare number.

Give me measured Tmax, please, for this compound: CC1(C)CCC2(CC1)N[C@@H](C(=O)N[C@@H]1CC[C@@H](C(N)=O)OC1)[C@H](c1ccnc(Cl)c1F)[C@]21C(=O)Nc2cc(Cl)ccc21
3.03

----------
experimental-details: Plasma pharmacokinetics (validated HPLC/MS, noncompartmental analysis)
Type: in vivo, human
test-conditions: human, plasma, oral, 120 mg/day, Day 1 of cycle 1, 120 mg/day, mean (SD)
result-type: Cmax (ng/mL)
Write the value in ng/mL as a bare number.

Give me measured Cmax, please, for this molecule: CC1(C)CCC2(CC1)N[C@@H](C(=O)N[C@@H]1CC[C@@H](C(N)=O)OC1)[C@H](c1ccnc(Cl)c1F)[C@]21C(=O)Nc2cc(Cl)ccc21
1010

----------
experimental-details: Plasma pharmacokinetics (validated HPLC/MS, noncompartmental analysis)
Format: in vivo, human
test-conditions: human, plasma, oral, 90 mg/day, Day 1 of cycle 1, 90 mg/day, mean (SD); read-out: AUClast
result-type: AUC(0-t) (ng·h/mL)
Write the value in ng·h/mL as a bare number.

Give me measured AUC(0-t), please, for this compound: CC1(C)CCC2(CC1)N[C@@H](C(=O)N[C@@H]1CC[C@@H](C(N)=O)OC1)[C@H](c1ccnc(Cl)c1F)[C@]21C(=O)Nc2cc(Cl)ccc21
8060

----------
experimental-details: Plasma pharmacokinetics (validated HPLC/MS, noncompartmental analysis)
Assay type: in vivo, human
test-conditions: human, plasma, oral; Day 1 of cycle 1, 120 mg/day, mean (SD), one patient excluded; read-out: t1/2 (converted)
result-type: half-life (h)
Write the value in h as a bare number.

Give me measured half-life, please, for this molecule: CC1(C)CCC2(CC1)N[C@@H](C(=O)N[C@@H]1CC[C@@H](C(N)=O)OC1)[C@H](c1ccnc(Cl)c1F)[C@]21C(=O)Nc2cc(Cl)ccc21
14.1

----------
experimental-details: Plasma pharmacokinetics (validated HPLC/MS, noncompartmental analysis)
Assay type: in vivo, human
test-conditions: human, plasma, oral; Day 1 of cycle 1, 120 mg/day, mean (SD), one patient excluded
result-type: AUC(0-inf) (ng·h/mL)
Write the value in ng·h/mL as a bare number.

Give me measured AUC(0-inf), please, for this compound: CC1(C)CCC2(CC1)N[C@@H](C(=O)N[C@@H]1CC[C@@H](C(N)=O)OC1)[C@H](c1ccnc(Cl)c1F)[C@]21C(=O)Nc2cc(Cl)ccc21 [milademetan]
18600

----------
experimental-details: Plasma pharmacokinetics (validated HPLC/MS, noncompartmental analysis)
Format: in vivo, human
test-conditions: human, plasma, oral, 90 mg/day, Day 14 of cycle 1, 90 mg/day, mean (SD); read-out: AUC8h
result-type: AUC(0-t) (ng·h/mL)
Write the value in ng·h/mL as a bare number.

Give me measured AUC(0-t), please, for this compound: CC1(C)CCC2(CC1)N[C@@H](C(=O)N[C@@H]1CC[C@@H](C(N)=O)OC1)[C@H](c1ccnc(Cl)c1F)[C@]21C(=O)Nc2cc(Cl)ccc21 [milademetan]
6220

----------
experimental-details: Plasma pharmacokinetics (validated HPLC/MS, noncompartmental analysis)
Format: in vivo, human
test-conditions: human, plasma, oral, 90 mg/day, Day 1 of cycle 1, 90 mg/day, mean (SD); read-out: AUC8h
result-type: AUC(0-t)
Please give the number followed by its unit.

Give me measured AUC(0-t), please, for this compound: CC1(C)CCC2(CC1)N[C@@H](C(=O)N[C@@H]1CC[C@@H](C(N)=O)OC1)[C@H](c1ccnc(Cl)c1F)[C@]21C(=O)Nc2cc(Cl)ccc21 [milademetan]
3170 ng·h/mL

----------
experimental-details: Plasma pharmacokinetics (validated HPLC/MS, noncompartmental analysis)
Assay type: in vivo, human
test-conditions: human, plasma, oral, 120 mg/day, Day 14 of cycle 1, 120 mg/day, median (minimum, maximum); read-out: Tmax
Description: Milademetan concentrations were determined using a validated HPLC/MS method. The lower limit of quantification was 0.500 ng/mL. Noncompartmental analysis was used to calculate the PK parameters from milademetan plasma concentrations. In addition, the Phoenix WinNonlin 8.1 software (Certara, Princeton, NJ, USA) was used for PK analysis. […] The best response was measured as CR, CRh, CRi, or PR. […]
result-type: Tmax (h)
Write the value in h as a bare number.

Give me measured Tmax, please, for this compound: CC1(C)CCC2(CC1)N[C@@H](C(=O)N[C@@H]1CC[C@@H](C(N)=O)OC1)[C@H](c1ccnc(Cl)c1F)[C@]21C(=O)Nc2cc(Cl)ccc21 [milademetan]
2.98

----------
experimental-details: Plasma pharmacokinetics (validated HPLC/MS, noncompartmental analysis)
Assay type: in vivo, human
test-conditions: human, plasma, oral, 160 mg/day, Day 14 of cycle 1, 160 mg/day, mean (SD); read-out: AUC8h
result-type: AUC(0-t) (ng·h/mL)
Write the value in ng·h/mL as a bare number.

Give me measured AUC(0-t), please, for this compound: CC1(C)CCC2(CC1)N[C@@H](C(=O)N[C@@H]1CC[C@@H](C(N)=O)OC1)[C@H](c1ccnc(Cl)c1F)[C@]21C(=O)Nc2cc(Cl)ccc21
15300

----------
experimental-details: Plasma pharmacokinetics (validated HPLC/MS, noncompartmental analysis)
Assay type: in vivo, human
test-conditions: human, plasma, oral, 160 mg/day, Day 1 of cycle 1, 160 mg/day, median (minimum, maximum); read-out: Tmax
result-type: Tmax (h)
Write the value in h as a bare number.

Give me measured Tmax, please, for this compound: CC1(C)CCC2(CC1)N[C@@H](C(=O)N[C@@H]1CC[C@@H](C(N)=O)OC1)[C@H](c1ccnc(Cl)c1F)[C@]21C(=O)Nc2cc(Cl)ccc21 [milademetan]
2.54

----------
experimental-details: Plasma pharmacokinetics (validated HPLC/MS, noncompartmental analysis)
Format: in vivo, human
test-conditions: human, plasma, oral, 160 mg/day, Day 1 of cycle 1, 160 mg/day, mean (SD), two patients excluded; read-out: AUC24h
result-type: AUC(0-t) (ng·h/mL)
Write the value in ng·h/mL as a bare number.

Give me measured AUC(0-t), please, for this compound: CC1(C)CCC2(CC1)N[C@@H](C(=O)N[C@@H]1CC[C@@H](C(N)=O)OC1)[C@H](c1ccnc(Cl)c1F)[C@]21C(=O)Nc2cc(Cl)ccc21 [milademetan]
15000

----------
experimental-details: Plasma pharmacokinetics (validated HPLC/MS, noncompartmental analysis)
Assay type: in vivo, human
test-conditions: human, plasma, oral; Day 1 of cycle 1, 90 mg/day, mean (SD), two patients excluded; read-out: t1/2 (converted)
result-type: half-life (h)
Write the value in h as a bare number.

Give me measured half-life, please, for this compound: CC1(C)CCC2(CC1)N[C@@H](C(=O)N[C@@H]1CC[C@@H](C(N)=O)OC1)[C@H](c1ccnc(Cl)c1F)[C@]21C(=O)Nc2cc(Cl)ccc21
15.9
